test system: NCI-H460 lung
Entries annotated with measured GI50

Some compounds with recorded GI50:
- compound: "Nn1c(-c2ccc(Cl)cc2)nc2c(-c3ccc(Cl)cc3)nc3ccc(Cl)cc3c2c1=O"
  reading: "3.36 µM"
- compound: "C[C@@H]1CCc2ncc(F)cc2[C@H]2CCCN2c2ccn3ncc(c3n2)C(=O)N1"
  reading: "> 100 µM"
- compound: "CN(C)c1ccc(C(O)C2=CC(=O)c3ccccc3C2=O)cc1 (centres undefined)"
  reading: "51.9 µM"
- compound: "O=CN1N=C(c2cccc(Nc3ccnc4cc(Cl)ccc34)c2)CC1c1ccc(Cl)cc1 (centres undefined)"
  reading: "0.787 µM"
- compound: "CCOC1Oc2ccc(C)cc2C(=O)/C1=C\\Nc1ccc(S(N)(=O)=O)cc1 (centres undefined)"
  reading: "17 µM"

Prompt: Quick one: GI50 for `COc1cc(-c2nn(-c3cccc(NC(=O)CCN4CCN(c5ccccc5)CC4)c3)cc2-c2ccncc2)ccc1Cl` ?
Completion: 3.11 µM

Prompt: Next compound up: `CC(=O)Oc1cc2cnc3c4cc(OC(C)=O)c(OC(C)=O)cc4ccc3c2cc1OC(C)=O`
Completion: 0.569 µM

Prompt: Same lookup for `Cc1cc(S(N)(=O)=O)c(S/C(=N\NS(=O)(=O)c2ccccc2)c2ccc(Cl)cc2)cc1Cl` , please.
Completion: 65.4 µM

Prompt: // query: CC1(C)C2CCC13C(=O)C1OC3(C2)C2C(=O)c3c(ccc4c3ccc3ccccc34)C(=O)C12 (centres undefined)
Completion: 57.3 µM

* * *

# TGI per entry
test system: CAKI-1 renal; assay: NCI tumour cell line growth inhibition, 48 h
Give just the numeric value; µM need not be written.

Worked examples, 3 molecules total:
- molecule: "CC1(C)OC(=O)C(=C2CCC(C(=O)Nc3cccc(C(F)(F)F)c3)N2)C(=O)O1 (stereo not given)"
  targetEntity: "CAKI-1 renal"
  TGI (µM): 26.6
- molecule: "NC(=O)/C(=C/n1cnc(-c2cc(C(F)(F)F)cc(C(F)(F)F)c2)n1)c1cncnc1"
  targetEntity: "CAKI-1 renal"
  TGI (µM): 14.1
- molecule: "C[As](C)SC1OCC(O)C(O)C1O (stereo not given)"
  targetEntity: "CAKI-1 renal"
  TGI (µM): 0.273

Below: the item to evaluate.
Prompt: Fill in: TGI of `O=[N+]([O-])c1ccc(N=Nc2c(O)[nH]c3ccccc23)c([N+](=O)[O-])c1` is ___
Completion: 43.9

* * *

tested on: MALME-3M melanoma; assay: NCI tumour cell line growth inhibition, 48 h
readoutType: TGI

Worked cases, TGI given:
- compound: "C#C[C@]1(O)CC[C@H]2[C@@H]3CC=C4c5nc(N)sc5CC[C@]4(C)[C@H]3CC[C@@]21C"
  TGI: "8.98 µM"
- compound: "CC(C)[C@H]1NC(=O)[C@H]2N=C(S[C@H]2C)[C@@H]2CCCN2C(=O)[C@H](Cc2ccccc2)NC(=O)[C@@H]2CSC(=N2)[C@@H](Cc2ccccc2)NC(=O)[C@@H]2CSC1=N2"
  TGI: "> 50 µM"
- compound: "COC(=O)/C=C/[C@@H]1[C@H](C)N1S(=O)(=O)c1ccc(C)cc1 (some centres undefined)"
  TGI: "> 100 µM"
- compound: "COc1cccc(C23CCN(C)C(CC(O)C2)C3)c1OC (centres undefined)"
  TGI: "> 100 µM"
- compound: "CC(Oc1ccccc1Cl)C(=O)NN1C(=O)CC(=O)N(c2ccc(Cl)cc2)C1=S (centres undefined)"
  TGI: "> 100 µM"

Prompt: Name the reported TGI value associated with the compound `COc1ccccc1C(=O)N(Cc1ccccc1)c1ccc(Cl)c(C(=O)OC(C)C)c1`
Completion: 85.9 µM

Prompt: And CSC1=Nc2c(c(C)c(-c3ccccc3)n2COC(CO)CO)C2=NC(=O)CC(C)N12 (centres undefined) ?
Completion: > 100 µM

Prompt: Thanks! And C1=CC2CCC1CN2CCC1CNc2ccccc21 (centres undefined) ?
Completion: > 100 µM

Prompt: Now try `CCCCCCCCCCCCOCC1(COCCCCCCCCCCCC)COC(c2ccc(N)cc2)OC1` .
Completion: > 100 µM

* * *

Parameter TGI: see the listing below.
tested on: SNB-78 CNS; test: NCI tumour cell line growth inhibition, 48 h

- compound: "Cc1cc(Cl)ccc1NC(=O)C1C(=O)N(c2ccc(Cl)cc2C)C(=O)/C1=N\\NC(N)=S (stereo not drawn)"
  readoutType: "TGI"
  reading: "> 100 µM"
- compound: "Cc1ccc2ccc(-c3ccccc3)c3c2c1C(=O)c1ccccc1C3=O"
  readoutType: "TGI"
  reading: "> 100 µM"
- compound: "C[C@H]1CC[P+](C)(c2ccccc2)C1 (stereo partly drawn)"
  readoutType: "TGI"
  reading: "> 100 µM"
- compound: "COc1cc2c(c(OC)c1OC)C(=O)NCCC2"
  readoutType: "TGI"
  reading: "> 100 µM"
- compound: "C=C1C(O)C2(O)OCC34C(CC5C(C)=CC(=O)C(O)C5(C)C23)OC(=O)C(OC(=O)C/C=C/CCCCCCCC)C14 (stereo not drawn)"
  readoutType: "TGI"
  reading: "0.057 µM"

Prompt: Field request: TGI | item: C1=CC2CCC1CN2CCC1CNc2ccccc21 (stereo not drawn)
Completion: > 100 µM

Prompt: Check `COc1ccccc1NC(=O)C1=C(C)NC(C)=C(C(=O)Nc2ccccc2OC)C1c1ccco1` too.
Completion: > 100 µM

Prompt: One more compound: COC(=O)/C=C(\C)CCC1SC1(C)C (stereo not drawn)
Completion: > 100 µM

* * *

tested on: NCI/ADR-RES ovarian; assay: NCI tumour cell line growth inhibition, 48 h; in the data active = GI50 below about 0.43 µM; inactive = the rest
Outcomes you can answer with include only these: 1 (yes) for active, 0 (no) for inactive

Answered examples (6):
- compound: "CN(C)c1ccc(C(O)C2=CC(=O)c3ccccc3C2=O)cc1 (centres undefined)"
  groupLabel: "0 (no)"
- compound: "C=CC(=O)Nc1cc2c(Nc3ccc(F)c(Cl)c3)ncnc2cc1C#CC(C)(C)N1CCN(C)CC1"
  groupLabel: "0 (no)"
- compound: "COc1ccc(-c2csc(Nc3cccc(-c4csc(C)n4)c3)n2)cc1"
  groupLabel: "0 (no)"
- compound: "CCOC(=O)[C@@H]1CSC(CC)=C(C(=O)O)N1"
  groupLabel: "0 (no)"
- compound: "CCCCCC[C@H]1C(=O)O[C@H](C)[C@H](NC(=O)c2cccc(NC=O)c2OC)C(=O)O[C@@H](C)[C@@H]1OC(=O)CCC (tested in a mixture with another compound)"
  groupLabel: "0 (no)"
- compound: "CS(=O)(=O)Nc1cc(-c2ccc3ncnc(Nc4cccc(Cl)c4)c3c2)cnc1Cl"
  groupLabel: "0 (no)"

Prompt: Entry `CCOC(=O)/C(=C\c1ccc2ccccc2c1)P(=O)(OCC)OCC` : call = ?
Completion: 0 (no)

Prompt: What would you report for COc1ccc(C(O)c2cc3c(N)c(C(=O)Nc4cccc(Br)c4C)sc3nc2C)cc1 (centres undefined) ?
Completion: 1 (yes)

Prompt: Next: `NCCCN=c1ccc2c3c1c(O)c1c(O)ccc(=O)c1c3[nH]n2CCNCCO`
Completion: 0 (no)

Prompt: Again, but for Cc1ccc(C2CC(c3ccc(Nc4ccnc5cc(Cl)ccc45)cc3)=NN2C=O)cc1 (centres undefined)
Completion: 0 (no)

Prompt: Same for `CCOC(=O)c1c(NC(=O)c2ccc(Cl)cc2)sc2c(CN(C)C)c(O)ccc12`
Completion: 0 (no)

Prompt: And the next one, `O=c1[nH]cnc2n[nH]nc12` ?
Completion: 0 (no)

Prompt: Ok, now `Nn1c(-c2ccc(Cl)cc2)nc2c(-c3ccc(Cl)cc3)nc3ccc(Cl)cc3c2c1=O`
Completion: 0 (no)

Prompt: And the next one, `Nc1ccccc1C#Cc1ccccc1C#Cc1cccs1` ?
Completion: 0 (no)

* * *

Reported TGI is given for each of the following compounds.
tested on: SK-MEL-2 melanoma; experiment: NCI tumour cell line growth inhibition, 48 h

- compound: "CCCCOC/N=C(/N)NC#N"
  TGI: "> 100 µM"
- compound: "O=c1[nH]cnc2n[nH]nc12"
  TGI: "32 µM"
- compound: "COc1cc(-c2nn(-c3cccc(NC(=O)CCNc4ccc(N5CCOCC5)cc4)c3)cc2-c2ccncc2)ccc1Cl"
  TGI: "5.64 µM"
- compound: "Cc1ccc(S(=O)(=O)N2CCSCCSCCSCCN(S(=O)(=O)c3ccc(C)cc3)CC2)cc1"
  TGI: "> 100 µM"
- compound: "COc1ccc(/C=N/NS(=O)(=O)c2ccccc2)cc1"
  TGI: "> 100 µM"

Prompt: Can you look up the measured TGI of CC(C)CC(N)C(=O)NC(C(=O)NC(CCCNC(=N)N)C(=O)NC(CS)C(=O)NC1CSCC(C(=O)NC(Cc2ccccc2)C(=O)NC(C(=O)NC(CCCNC(=N)N)C(=O)O)C(C)C)NC(=O)C2CCCN2C(=O)C(CCCCN)NC(=O)C2CCCN2C(=O)C2CCCN2C(=O)C(Cc2ccc(O)cc2)NC(=O)C(CO)NC(=O)C(CCCCN)NC(=O)C(C(C)O)NC(=O)C(Cc2c[nH]c3ccccc23)NC1=O)C(C)C (stereo not drawn) for me?
Completion: > 25 µM

Prompt: Now consider COc1cccc(/C=N\NC(=O)C(C)SC(C)C(=O)N/N=C/c2cccc(OC)c2)c1 (stereo not drawn) and answer again.
Completion: > 62.6 µM

Prompt: # iterate: COc1cc(NC2CCCCC2O)c2nc(-c3ccc(Cl)cc3)ccc2c1 (stereo not drawn)
Completion: 59.3 µM
